Reference source for all entries: the Deep4Chem optical property database

- assay-remarks: solvent given as SMILES
- condition: in ClCCl
Would you mind telling me the reported absorption maximum of each entry?
Lab book: enter the figure in nm, no units written.

Form: compound = CCc1c(C)c2n(c1C)[B-](F)(F)[N+]1=C(c3ccc[nH]3)c3ccccc3C1=C2 ; absorption maximum = 616

Form: compound = c1ccc2c(c1)-c1ccccc1[Si]21c2ccccc2-c2cc3c(cc21)-c1ccccc1[Si]31c2ccccc2-c2ccccc21 ; absorption maximum = 329

Form: compound = c1ccc(C2=C3c4ccccc4C4=[N+]3[B-]3(Oc5ccccc54)Oc4ccccc4-c4c5ccccc5c2n43)cc1 (configuration not stated) ; absorption maximum = 711

Form: compound = CC(C)(C)c1cc(-c2c3cc(c(-c4cc(C(C)(C)C)cc(C(C)(C)C)c4)c4ccc([nH]4)c(-c4ccc(Br)cc4)c4nc(c(-c5ccc(Br)cc5)c5ccc2[nH]5)C=C4)N=C3)cc(C(C)(C)C)c1 ; absorption maximum = 726

Form: compound = F[B-]1(F)N(c2ccccc2)c2cccc3ccc4ccc[n+]1c4c23 ; absorption maximum = 465

Form: compound = CC[C@H](C)COc1ccc(C2=C3C(C)=C(c4ccc5ccc6cccc7ccc4c5c67)C(C)=[N+]3[B-](F)(F)n3c(C)c(-c4ccc5ccc6cccc7ccc4c5c67)c(C)c32)cc1 ; absorption maximum = 530

Form: compound = COc1ccc(-c2cnc3cccc(-c4ccc(C(C)=O)cc4)n23)cc1 ; absorption maximum = 366

Form: compound = CC(=O)Nc1ccc(S(=O)(=O)O)c(/N=N/c2c(O)c3ccccc3n(C)c2=O)c1 ; absorption maximum = 435

Form: compound = Cc1ccccc1[B-]1(c2ccccc2C)n2nc(C(F)(F)F)cc2-c2c3ccccc3cc[n+]21 ; absorption maximum = 374

Form: compound = c1ccc(-c2c3ccccc3c(-c3ncccn3)c3ccccc23)cc1 ; absorption maximum = 393

Form: compound = COC1=[N+]2C(=C(c3ccccc3)c3cc(SC#N)c(OC)n3[B-]2(F)F)C=C1SC#N ; absorption maximum = 518

Form: compound = c1ccc(-c2cc3cc4cccc5c(-c6ccccc6)cc6cc7cccc2c7c3c6c45)cc1 ; absorption maximum = 439

Form: compound = F[B-]1(F)OC(C#Cc2ccccc2)=C2CCc3ccccc3C2=[O+]1 ; absorption maximum = 431

Form: compound = C1=[N+](c2ccccc2)[B-](c2ccccc2)(c2ccccc2)Oc2c1ccc1c3c(ccc21)C=[N+](c1ccccc1)[B-](c1ccccc1)(c1ccccc1)O3 ; absorption maximum = 529

Form: compound = C(=C\c1nc(/C=C/c2ccccc2)nc(/C=C/c2ccccc2)n1)/c1ccccc1 ; absorption maximum = 327

Form: compound = Clc1nnc(O/N=C/c2ccc(N(c3ccc(Br)cc3)c3ccc(Br)cc3)cc2)nn1 ; absorption maximum = 520

Form: compound = O=C(O)C1=C(C(=O)O)C2=C[C@H]3c4ccccc4[C@]2([Se]1)c1ccccc13 ; absorption maximum = 421

###

Would you mind telling me the reported absorption maximum of each entry?
- assay-remarks: solvent given as SMILES
- condition: in CCO
Lab book: enter the figure in nm, no units written.

Form: compound = O=Cc1cc(C=O)c2ccc3c(N4CCCCC4)cc(N4CCCCC4)c4ccc1c2c43 ; absorption maximum = 522

Form: compound = COc1ccc2c(c1)C(=O)c1cc(OC)cc(OC)c1-2 ; absorption maximum = 492

Form: compound = O=Cc1ccc2ccc3cccc4ccc1c2c34 ; absorption maximum = 389

Form: compound = Cc1cnc(NC(=O)C2=C(O)c3ccccc3S(=O)(=O)N2C)s1 ; absorption maximum = 349

Form: compound = Cc1ccc2occ(CC(=O)NN)c2c1 ; absorption maximum = 283

Form: compound = CCN(C(C)=O)c1cc2c(cc1C)C(c1ccccc1C(=O)O)=C1CCCC(/C=C/C3=[N+](C)c4ccccc4C3(C)C)=C1O2 ; absorption maximum = 656

Form: compound = CCN(CC)c1ccc2c(-c3ccccc3C(=O)[O-])c3ccc(=[N+](CC)CC)cc-3oc2c1 ; absorption maximum = 539

Form: compound = Ic1ccc(-c2c3ccc(=[N+]4CCCCC4)cc-3oc3cc(N4CCCCC4)ccc23)cc1 ; absorption maximum = 568

Form: compound = c1cc(N2CCCC2)ccn1 ; absorption maximum = 286

Form: compound = C[P+]1(c2ccccc2)C2=C(c3ccccc31)S(=O)(=O)c1ccccc12 (stereo not given) ; absorption maximum = 319
